- SUBJECT OF TEST: APOL1 G1 Protein (Homo sapiens, UniProt O14791, I384M/S342G)
- Sequence (O14791 28-398 S342G/I384M): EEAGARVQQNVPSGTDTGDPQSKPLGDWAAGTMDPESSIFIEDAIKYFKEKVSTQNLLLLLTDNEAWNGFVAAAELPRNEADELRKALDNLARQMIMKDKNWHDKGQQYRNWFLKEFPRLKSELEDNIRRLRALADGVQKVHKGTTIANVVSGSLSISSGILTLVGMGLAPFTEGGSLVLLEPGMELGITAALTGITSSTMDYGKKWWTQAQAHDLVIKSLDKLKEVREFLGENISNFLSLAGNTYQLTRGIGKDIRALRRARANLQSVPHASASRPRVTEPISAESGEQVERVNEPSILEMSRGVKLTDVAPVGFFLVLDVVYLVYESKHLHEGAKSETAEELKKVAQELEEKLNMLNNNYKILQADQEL
- TEST DETAILS: Trypanosoma brucei brucei Lysis Assay Using APOL1 Recombinant Protein (AlamarBlue viability)
- EXPERIMENTAL SETUP: read-out: Trypanosomal Assay (IC50)
pIC50: −log10 of the molar value.
MEASURED PROPERTY: pIC50

Examples from the recorded data:
[
  {
    "COMPOUND": "CS(=O)(=O)NC(=O)CCc1c(-c2ccc(F)cc2)[nH]c2c(F)cc(F)cc12 [Compound 93]",
    "SUBJECT OF TEST": "APOL1 G1 Protein (Homo sapiens, UniProt O14791, I384M/S342G)",
    "pIC50": "< 6.00"
  },
  {
    "COMPOUND": "Cn1nnnc1NC(=O)CCc1c(-c2ccc(F)cc2)[nH]c2c(F)cc(F)cc12 [Compound 165]",
    "SUBJECT OF TEST": "APOL1 G1 Protein (Homo sapiens, UniProt O14791, I384M/S342G)",
    "pIC50": "< 6.00"
  },
  {
    "COMPOUND": "CC(CO)(CO)NC(=O)CCc1c(-c2ccc(F)cc2)[nH]c2ccc(F)cc12 [Compound 18]",
    "SUBJECT OF TEST": "APOL1 G1 Protein (Homo sapiens, UniProt O14791, I384M/S342G)",
    "pIC50": "6.00 to 6.60"
  },
  {
    "COMPOUND": "O=C(CCc1c(-c2ccc(F)cc2)[nH]c2ccc(F)cc12)NC1CC1c1ccc(F)cc1 (centres unmarked) [Compound 44]",
    "SUBJECT OF TEST": "APOL1 G1 Protein (Homo sapiens, UniProt O14791, I384M/S342G)",
    "pIC50": "< 6.00"
  },
  {
    "COMPOUND": "O=C(CCc1c(-c2ccc(F)cc2)[nH]c2c(F)cc(F)cc12)NC1(CO)CC(F)(F)C1 [Compound 122]",
    "SUBJECT OF TEST": "APOL1 G1 Protein (Homo sapiens, UniProt O14791, I384M/S342G)",
    "pIC50": "< 6.00"
  },
  {
    "COMPOUND": "O=C(CCc1c(-c2ccc(F)cc2)[nH]c2c(F)cc(F)cc12)Nc1ncco1 [Compound 162]",
    "SUBJECT OF TEST": "APOL1 G1 Protein (Homo sapiens, UniProt O14791, I384M/S342G)",
    "pIC50": "< 6.00"
  },
  {
    "COMPOUND": "O=C(CCc1c(-c2ccc(F)cc2)[nH]c2c(F)cc(F)cc12)NC1CCCC1=O (centres unmarked) [Compound 101]",
    "SUBJECT OF TEST": "APOL1 G1 Protein (Homo sapiens, UniProt O14791, I384M/S342G)",
    "pIC50": "> 6.60"
  },
  {
    "COMPOUND": "O=C(/C=C/c1c(-c2ccc(F)cc2)[nH]c2c(F)cc(F)cc12)N[C@@H]1C(=O)NC[C@H]1O [Compound 518]",
    "SUBJECT OF TEST": "APOL1 G1 Protein (Homo sapiens, UniProt O14791, I384M/S342G)",
    "pIC50": "> 6.60"
  },
  {
    "COMPOUND": "O=C(CCc1c(-c2ccc(F)cc2)[nH]c2c(F)cc(F)cc12)N[C@H]1COC[C@@H]1O [Compound 181]",
    "SUBJECT OF TEST": "APOL1 G1 Protein (Homo sapiens, UniProt O14791, I384M/S342G)",
    "pIC50": "< 6.00"
  },
  {
    "COMPOUND": "O=C(CCc1c(-c2ccc(F)cc2)[nH]c2c(F)cc(F)cc12)Nc1ccno1 [Compound 184]",
    "SUBJECT OF TEST": "APOL1 G1 Protein (Homo sapiens, UniProt O14791, I384M/S342G)",
    "pIC50": "< 6.00"
  }
]

Name the recorded pIC50 for N[C@H]1C[C@H](NC(=O)CCc2c(-c3ccc(F)cc3)[nH]c3ccc(F)cc23)C1 [Compound 54] . < 6.00

Name the recorded pIC50 for O=C(CCc1c(-c2ccc(F)cc2)[nH]c2c(F)cc(F)cc12)NC(c1ccco1)C(F)(F)F (centres unmarked) [Compound 157] . < 6.00
